Task for the reader: assign each of the following compounds its reported growth inhibition by drug alone.
# System: U-2932
# assayNotes: growth inhibition by drug alone (1 - RLU/untreated control) (fraction); higher = stronger inhibition
# cond: 1000 nM; time (day): 3; 177Lu-lilotomab satetraxetan 0 ug/ml
Counter-ions that a name gives are not always drawn.
One number for each entry.

For orientation, consider the following solved cases.
COc1cc2c(cc1OC)CN(CCc1ccc(NC(=O)c3cccc4c(=O)c5cccc(OC)c5[nH]c34)cc1)CC2
0.114
CNC(=O)c1ccc(N2C(=S)N(c3ccc(C#N)c(C(F)(F)F)c3)C(=O)C2(C)C)cc1F [MDV3100 (Enzalutamide)]
0.019
CC/C(=C(\c1ccccc1)c1ccc(OCCN(C)C)cc1)c1ccccc1 [Tamoxifen Citrate (Nolvadex)]
0.106

Read the next record carefully.
The value of growth inhibition by drug alone measured for the compound CC(C=CC(=O)NO)=CC(C)C(=O)c1ccc(N(C)C)cc1 (centres undefined) turned out to be 0.98

###

# Tested on: U-2932
# assayNotes: growth inhibition by drug plus 177Lu-lilotomab satetraxetan (1 - RLU/untreated control) (fraction); higher = stronger inhibition
# cond: 10 nM; time (day): 3; 177Lu-lilotomab satetraxetan 1 ug/ml
Where a name gives a salt, the structure may show the parent alone.
metric: growth inhibition by drug plus 177Lu-lilotomab satetraxetan

For orientation, consider the following solved cases.
Cc1cccc(-c2[nH]c(C(C)(C)C)nc2-c2ccc3nccnc3c2)n1
0.0382
COc1cccc2c1C(=O)c1c(O)c3c(c(O)c1C2=O)C[C@@](O)(C(=O)CO)C[C@@H]3O[C@H]1C[C@H](N)[C@@H](O)[C@H](C)O1 [Epirubicin Hydrochloride]
0.24
CC(C)c1onc(-c2c(Cl)cccc2Cl)c1COc1ccc(/C=C/c2cccc(C(=O)O)c2)c(Cl)c1
0.0329
CN(C)C/C=C/C(=O)Nc1cc2c(Nc3ccc(F)c(Cl)c3)ncnc2cc1O[C@H]1CCOC1
0.0397
Cc1cc(O)c2c(c1)C(=O)c1cccc(O)c1C2=O
-0.0546

Need growth inhibition by drug plus 177Lu-lilotomab satetraxetan for each of these compounds.
1. COc1cc2nccc(Oc3ccc(NC(=O)Nc4cc(C)on4)c(Cl)c3)c2cc1OC
2. COc1cc2c(cc1O)CC[C@@H]1[C@@H]2CC[C@]2(C)[C@@H](O)CC[C@@H]12

[0.0499, -0.116]

###

# System: RIVA
# assayNotes: growth inhibition by drug plus 177Lu-lilotomab satetraxetan (1 - RLU/untreated control) (fraction); higher = stronger inhibition
# cond: 10 nM; time (day): 4; 177Lu-lilotomab satetraxetan 0.5 ug/ml
Decision: growth inhibition by drug plus 177Lu-lilotomab satetraxetan compared against 0.6; not below it gives condition met, below it gives condition not met.

OCCn1cc(-c2ccc3c(c2)CC/C3=N\O)c(-c2ccncc2)n1
condition not met

Please indicate if the recorded growth inhibition by drug plus 177Lu-lilotomab satetraxetan for `CCOC(=O)[C@@H](C)Oc1cccc2c(=O)n(CC(=O)Nc3ccc4c(c3)OCCO4)ccc12` meets or exceeds 0.6.
condition not met

Please indicate if the recorded growth inhibition by drug plus 177Lu-lilotomab satetraxetan for `Nc1nccc(Oc2ccc(NC(=O)c3c[nH]cc(-c4ccc(F)cc4)c3=O)cc2F)c1Cl` meets or exceeds 0.6.
condition not met

Please indicate if the recorded growth inhibition by drug plus 177Lu-lilotomab satetraxetan for `Nc1ccccc1NC(=O)c1ccc(CNc2nccc(-c3cccnc3)n2)cc1` meets or exceeds 0.6.
condition not met

Please indicate if the recorded growth inhibition by drug plus 177Lu-lilotomab satetraxetan for `FC(F)c1nc2ccccc2n1-c1nc(N2CCOCC2)nc(N2CCOCC2)n1` meets or exceeds 0.6.
condition not met

Please indicate if the recorded growth inhibition by drug plus 177Lu-lilotomab satetraxetan for C[C@]12CCC(=O)C=C1CC[C@@H]1[C@@H]2[C@@H](O)C[C@@]2(C)[C@H]1CC[C@]2(O)C(=O)CO [Hydrocortisone (Cortisol)] meets or exceeds 0.6.
condition not met

Please indicate if the recorded growth inhibition by drug plus 177Lu-lilotomab satetraxetan for COc1c(C)c2c(c(O)c1C/C=C(\C)CCC(=O)OCCN1CCOCC1)C(=O)OC2 [Mycophenolate mofetil (CellCept)] meets or exceeds 0.6.
condition not met

Please indicate if the recorded growth inhibition by drug plus 177Lu-lilotomab satetraxetan for `Nc1cc(C(F)(F)F)c(-c2cc(N3CCOCC3)nc(N3CCOCC3)n2)cn1` meets or exceeds 0.6.
condition not met
